Exercise: state measured relative viability for each of the compounds provided.
Test system: LK-2
RUN_DESCRIPTION: relative viability (nuclei count vs DMSO), 5 days (fraction); higher = more cells survive
EXPERIMENTAL_SETUP: first compound 0.6325 µM
The reply should be a number, written without any unit.

[ask] Recorded relative viability for Cc1csc(=NC2CCCCC2)n1/N=C/c1ccc(O)c(O)c1O [MIM1] + Nc1ncn([C@H]2C[C@H](O)[C@@H](CO)O2)c(=O)n1 [Decitabine] (partner 2 µM) , please?
[reply] 0.288

[ask] Given the compound CN1CCN(CCOc2cc(OC3CCOCC3)c3c(Nc4c(Cl)ccc5c4OCO5)ncnc3c2)CC1 [Saracatinib] + O=C(CCCCCCC(=O)Nc1ccccc1)NO [Vorinostat] (partner 1 µM) , what is its reported relative viability?
[reply] 0.224

[ask] Which value of relative viability has been reported for Cc1csc(=NC2CCCCC2)n1/N=C/c1ccc(O)c(O)c1O [MIM1] + COc1cccc2cc(-c3nc([C@H]4CC[C@H](C(=O)O)CC4)n4ncnc(N)c34)[nH]c12 [OSI-027] (partner 0.5 µM) in the records?
[reply] 0.201

[ask] Name the recorded relative viability for Cc1csc(=NC2CCCCC2)n1/N=C/c1ccc(O)c(O)c1O [MIM1] + C[C@]1(O)C[C@@H](c2nc(-c3ccc4ccc(-c5ccccc5)nc4c3)c3c(N)nccn32)C1 [Linsitinib] (partner 1 µM) .
[reply] 0.631

[ask] // query relative viability value for entry CN1CCN(CCOc2cc(OC3CCOCC3)c3c(Nc4c(Cl)ccc5c4OCO5)ncnc3c2)CC1 [Saracatinib] + Cc1nc(Nc2ncc(C(=O)Nc3c(C)cccc3Cl)s2)cc(N2CCN(CCO)CC2)n1 [Dasatinib] (partner 0.075 µM)
[reply] 0.345

[ask] For the compound shown here, CN1CCN(CCOc2cc(OC3CCOCC3)c3c(Nc4c(Cl)ccc5c4OCO5)ncnc3c2)CC1 [Saracatinib] + CC1(C)CCC(c2ccc(Cl)cc2)=C(CN2CCN(c3ccc(C(=O)NS(=O)(=O)c4ccc(N[C@H](CCN5CCOCC5)CSc5ccccc5)c(S(=O)(=O)C(F)(F)F)c4)cc3)CC2)C1 [Navitoclax] (partner 0.5 µM) , give the reported relative viability.
[reply] 0.71

[ask] Can you share its relative viability? I mean this compound: CN1CCN(CCOc2cc(OC3CCOCC3)c3c(Nc4c(Cl)ccc5c4OCO5)ncnc3c2)CC1 [Saracatinib] + CCNC(=O)c1noc(-c2cc(C(C)C)c(O)cc2O)c1-c1ccc(CN2CCOCC2)cc1 [Luminespib] (partner 0.01 µM)
[reply] 0.199

[ask] Please look up its relative viability: Cc1csc(=NC2CCCCC2)n1/N=C/c1ccc(O)c(O)c1O [MIM1] + NC(=O)Nc1cc(-c2cccc(F)c2)sc1C(=O)N[C@H]1CCCNC1 [AZD7762] (partner 0.2 µM)
[reply] 0.287

---

Tested on: NCI-H1651
RUN_DESCRIPTION: relative viability (nuclei count vs DMSO), 5 days (fraction); higher = more cells survive
EXPERIMENTAL_SETUP: first compound 0.006325 µM
OBSERVED_PROPERTY: relative viability

[ask] Return reported relative viability; argument: CCNC(=O)c1noc(-c2cc(C(C)C)c(O)cc2O)c1-c1ccc(CN2CCOCC2)cc1 [Luminespib] + C[C@]1(O)C[C@@H](c2nc(-c3ccc4ccc(-c5ccccc5)nc4c3)c3c(N)nccn32)C1 [Linsitinib] (partner 1 µM)
[reply] 0.983

[ask] So what's the measured relative viability for this one? CCNC(=O)c1noc(-c2cc(C(C)C)c(O)cc2O)c1-c1ccc(CN2CCOCC2)cc1 [Luminespib] + CC(C)C[C@H](NC(=O)[C@H](Cc1ccccc1)NC(=O)c1cnccn1)B(O)O [Bortezomib] (partner 0.002 µM)
[reply] 0.864

[ask] Find the recorded relative viability belonging to CCNC(=O)c1noc(-c2cc(C(C)C)c(O)cc2O)c1-c1ccc(CN2CCOCC2)cc1 [Luminespib] + COc1cc2c(Oc3ccc(NC(=O)C4(C(=O)Nc5ccc(F)cc5)CC4)cc3F)ccnc2cc1OCCCN1CCOCC1 [Foretinib] (partner 0.25 µM) and report it.
[reply] 0.718

[ask] So what does the record say about relative viability for CCNC(=O)c1noc(-c2cc(C(C)C)c(O)cc2O)c1-c1ccc(CN2CCOCC2)cc1 [Luminespib] + O=C(CCCCCCC(=O)Nc1ccccc1)NO [Vorinostat] (partner 1 µM) ?
[reply] 0.481
